measured_attribute: melting point

Look up melting point: "CC1(C)OC(c2ccc(S(C)(=O)=O)c(F)c2)=C(c2cccc(Cl)c2)C1=O"
108 to 109 °C

Look up melting point: CCC1(C)OC(c2ccc(S(N)(=O)=O)cc2)=C(c2cccc(OC)c2)C1=O (centres unmarked)
69 to 70 °C

Look up melting point: "CCCCc1ccc(C2=C(c3ccc(S(C)(=O)=O)cc3)OC(C)(C)C2=O)cc1"
84 to 85 °C

Look up melting point: CCC1(C)OC(c2ccc(S(C)(=O)=O)cc2)=C(c2cccc(C)c2)C1=O (centres unmarked)
48 to 49 °C

Look up melting point: "CC1(C)OC(c2ccc(S(C)(=O)=O)c(Cl)c2)=C(c2ccc(F)cc2)C1=O"
173 to 174 °C

Look up melting point: C[S+]([O-])c1ccc(C2=C(c3ccccc3)C(=O)C(C)(C)O2)c(F)c1 (centres unmarked)
149 to 150 °C

Look up melting point: CCC1(C)OC(c2ccc(S(C)(=O)=O)cc2)=C(c2ccccc2)C1=O (centres unmarked)
115 to 117 °C

Look up melting point: "CC1(C)OC(c2ccc(S(C)(=O)=O)cc2)=C(c2ccccc2Cl)C1=O"
100 to 103 °C
